// read-out pKi, gathered for Retinoic acid receptor gamma (Homo sapiens, UniProt P13631) from published studies
pKi: −log10 of the molar value.
Observed Property: pKi

| Compound | Limit Sign | Measured Number |
| --- | --- | --- |
| CCOc1cc2c(cc1\C(=C/C=C/C(C)=C/C(=O)O)CC)C(C)=CC(C)(C)O2 | = | 5.47 |
| CCCOc1c(\C(=C/C=C/C(C)=C/C(=O)O)CC)cc(C(C)C)cc1C(C)C | = | 6.51 |
| COc1cc2c(cc1\C(C)=C/C=C/C(C)=C/C(=O)O)C(C(C)C)=CC(C)(C)O2 | = | 5.60 |
| CC1(C)CCSc2ccc(C(/C=C/c3ccc(C(=O)O)cc3F)=N/O)cc21 | = | 7.82 |
| CCc1cc(N(c2ccc(C(=O)O)cc2)C(C)C)cc2c1OCC2(C)C | = | 5.31 |
| CC/C(=C(F)/C=C/C(C)=C/C(=O)O)c1cc2c(c(Cl)c1OC)OC(C)(C)C=C2C(C)C | = | 5.31 |
| COc1cc2c(cc1\C(C)=C(F)/C=C/C(C)=C/C(=O)O)C(C(C)C)=CC(C)(C)O2 | = | 5.06 |
| CCCOc1cc2c(cc1\C(C)=C(F)/C=C/C(C)=C/C(=O)O)C(C)(C)CCC2(C)C | = | 6.14 |
| CCCCCCCN1C(=O)CC(C)(C)c2cc(C(/C=C/c3ccc(C(=O)O)cc3)=N\O)ccc21 | = | 7.49 |
| CCOc1cc2c(cc1\C(CC)=C(F)/C=C/C(C)=C(\F)C(=O)O)C(C)(C)CCC2(C)C | = | 5.19 |
| CCCOc1cc2c(cc1C(=C/C=C/C(C)=C/C(=O)O)C(F)(F)F)C(C)(C)CCC2(C)C (stereo in doubt) | < | 5.00 |
| CC(C)N(c1ccc(C(=O)O)cc1)c1cc(C(C)(C)C)c2c(c1)C(C)(C)CO2 | = | 5.80 |
| CCN(c1ccc(C(=O)O)cc1)c1cc2c(cc1C)N(C(C)C)CCC2(C)C | = | 5.04 |
| Cc1ccc(C2=CCC(C)(C)c3cc(C(/C=C/c4ccc(C(=O)O)cc4F)=N\O)ccc32)cc1 | = | 6.88 |
| CC1(C)CCSc2ccc(C(/C=C/c3ccc(C(=O)O)cc3F)=N\O)cc21 | = | 7.72 |
| Cc1ccc(C2=CCC(C)(C)c3cc(C(/C=C/c4ccc(C(=O)O)cc4)=N/O)ccc32)cc1 | = | 8.52 |
| CCOc1c(\C(=C/C=C/C(C)=C/C(=O)O)CC)cc2c(c1Cl)OC(C)(C)C=C2C(C)C | = | 5.31 |

----------
// read-out Ki, gathered for Retinoic acid receptor gamma (Homo sapiens) from published studies
Observed Property: Ki (µM)

| Compound Smiles | Target Or Test System | Unit Abbrev | Limit Sign | Measured Number |
| --- | --- | --- | --- | --- |
| COc1cc2c(cc1\C(C)=C(F)/C=C/C(C)=C/C(=O)O)C(C(C)(C)C)=CC(C)(C)O2 | Retinoic acid receptor gamma (Homo sapiens) | µM | = | 3.9 |
| CC(C)CCN(c1ccc(C(=O)O)cc1)c1ccc2c(c1)C(C)(C)CCN2C(C)C | Retinoic acid receptor gamma (Homo sapiens) | µM | = | 1.5 |
| CC1(C)CCCc2ccc(C(/C=C/c3ccc(C(=O)O)cc3F)=N/O)cc21 | Retinoic acid receptor gamma (Homo sapiens) | µM | = | 0.046 |
| CC/C(=C(F)/C=C/C(C)=C/C(=O)O)c1cc2c(cc1OC)OC(C)(C)C=C2C(C)(C)C | Retinoic acid receptor gamma (Homo sapiens) | µM | = | 3.3 |
| CCCCCCCN1C(=O)CC(C)(C)c2cc(C(C=Cc3ccc(C(=O)O)cc3)=NO)ccc21 | Retinoic acid receptor gamma (Homo sapiens) | µM | = | 0.051 |
| CCN(c1ccc(C(=O)O)cc1)c1cc(C)c2c(c1)C(C)(C)CO2 | Retinoic acid receptor gamma (Homo sapiens) | µM | > | 30 |
| CCOc1cc2c(cc1\C(C)=C(F)/C=C/C(C)=C/C(=O)O)C(C(C)C)=CC(C)(C)O2 | Retinoic acid receptor gamma (Homo sapiens) | µM | = | 3.3 |
| CC(C)N1CCC(C)(C)c2cc(N(C)c3ccc(C(=O)O)cc3)ccc21 | Retinoic acid receptor gamma (Homo sapiens) | µM | > | 10 |

----------
// read-out Ki, gathered for Retinoic acid receptor gamma (Homo sapiens) from published studies
Cut-off 2000 nM on Ki: below means MET, at or above means NOT MET.

| Compound Smiles | Assigned Class |
| --- | --- |
| CCOc1cc2c(cc1\C(C)=C(F)/C=C/C(C)=C/C(=O)O)C(c1ccccc1)=CC(C)(C)O2 | NOT MET |
| CCN(c1ccc(C(=O)O)cc1)c1cc2c(cc1C)C(C)(C)CCN2C(C)C | NOT MET |
| Cc1cc(N(C)c2ccc(C(=O)O)cc2)cc2c1OCC2(C)C | NOT MET |
| CCOc1c(\C(C)=C(F)/C=C/C(C)=C/C(=O)O)cc2c(c1Cl)OC(C)(C)C=C2C(C)C | MET |
| CC/C(=C(F)/C=C/C(C)=C(\F)C(=O)O)c1cc2c(cc1OCOC)C(C)(C)CCC2(C)C | MET |
| CCCCOc1c(\C(C)=C/C=C/C(=C/C(=O)O)C(F)(F)F)cc(C(C)C)cc1C(C)C | NOT MET |
| COc1cc2c(cc1C(/C=C/c1ccc(C(=O)O)cc1)=N/O)C(C)(C)CCC2(C)C | MET |
| CCOc1cc2c(cc1\C(=C/C=C/C(C)=C/C(=O)O)CC)C(C(C)(C)C)=CCC2(C)C | MET |
| Cc1c(N(c2ccc(C(=O)O)cc2)C(C)C)cc2c(c1C(C)(C)C)OCC2(C)C | NOT MET |
| CC1(C)CCCc2ccc(C(/C=C/c3ccc(C(=O)O)cc3F)=N\O)cc21 | MET |
| CCCCOc1cc2c(cc1\C(C)=C(F)/C=C/C(C)=C/C(=O)O)C(C(C)C)=CC(C)(C)O2 | NOT MET |
| CC(C)c1cc(N(C)c2ccc(C(=O)O)cc2)cc2c1OCC2(C)C | NOT MET |
| CC(/C=C/C(F)=C(/C)c1cc2c(cc1OCC1CC1)C(C)(C)CC=C2C(C)C)=C\C(=O)O | NOT MET |
| COc1cc2c(cc1C(/C=C/c1ccc(C(=O)O)cc1)=N\O)C(C)(C)CCC2(C)C | MET |
| CC(C)CN(c1ccc(C(=O)O)cc1)c1ccc2c(c1)N(C(C)C)CCC2(C)C | NOT MET |
| CCc1cc(N(C)c2ccc(C(=O)O)cc2)cc2c1OCC2(C)C | NOT MET |
| CCCCOc1c(\C(C)=C/C=C/C(=C\C(=O)O)C(F)(F)F)cc(C(C)C)cc1C(C)C | NOT MET |
| CC/C(=C(F)/C=C/C(C)=C/C(=O)O)c1cc2c(cc1OC)OC(C)(C)C=C2C | NOT MET |
| Cc1cc2c(cc1N(CC1CC1)c1ccc(C(=O)O)cc1)C(C)(C)CCN2C(C)C | NOT MET |
| CC1(C)CC(C)(C)c2cc(C(/C=C/c3ccc(C(=O)O)cc3F)=N\O)ccc21 | MET |
| CCC1=CC(C)(C)Oc2cc(OC)c(\C(C)=C/C=C/C(C)=C/C(=O)O)cc21 | NOT MET |
| CCOc1cc2c(cc1\C(C)=C(F)/C=C/C(C)=C/C(=O)O)C(CC)=CC(C)(C)O2 | NOT MET |
| CCCCN(c1ccc(C(=O)O)cc1)c1ccc2c(c1)C(C)(C)OC2(C)C | NOT MET |
| CCOc1cc2c(cc1\C(C)=C(F)/C=C/C(C)=C/C(=O)O)C(C(C)C)=CCC2(C)C | NOT MET |
| CCN(c1ccc(C(=O)O)cc1)c1ccc2c(c1)C(C)(C)CC(=O)N2C(C)C | NOT MET |
| CCOc1cc2c(cc1\C(CC)=C(F)/C=C/C(C)=C/C(=O)O)C(CC)=CCC2(C)C | NOT MET |
| CCN1CCC(C)(C)c2cc(C(C)C)cc(\C(C)=C(F)/C=C/C(C)=C/C(=O)O)c21 | NOT MET |
| Cc1cc2c(cc1Nc1ccc(C(=O)O)cc1)N(C(C)C)CCC2(C)C | NOT MET |
| CCOc1cc2c(cc1\C(C)=C/C=C/C(C)=C/C(=O)O)C(C(C)(C)C)=CCC2(C)C | MET |
| CCCOc1cc2c(cc1\C(C)=C(F)/C=C/C(C)=C/C(=O)O)C(C(C)C)=CC(C)(C)O2 | MET |
